B1: OR4K15 (parent)
chain: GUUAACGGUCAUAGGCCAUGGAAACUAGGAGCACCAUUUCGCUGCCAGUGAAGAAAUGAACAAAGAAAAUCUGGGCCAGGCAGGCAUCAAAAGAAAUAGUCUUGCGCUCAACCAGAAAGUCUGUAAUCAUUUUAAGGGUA

# Variants of: B1
# Experimental protocol: self-cleavage, relative activity (ratio to wild type); higher = more cleavage; in vitro, sequencing; the parent is a self-cleaving ribozyme
Metric name: self-cleavage

For orientation, consider the following solved cases.
>  <Changes>
A52U U124C

>  <self-cleavage>
0.48

$$$$
>  <Changes>
G31A A59U

>  <self-cleavage>
0.76

$$$$
>  <Changes>
A56G A110G

>  <self-cleavage>
0.07

$$$$
>  <Changes>
A47G A54G

>  <self-cleavage>
1.22

$$$$

Fill in self-cleavage for each of the 8 variants listed.
1. G65A A118G
2. A27G U39A
3. G7U A92G
4. U37A U72C
5. A36U A89G
6. A62U U87C
7. A54G U130C
8. A68G G104A

Key:
1: 1.57; 2: 1.42; 3: 1.66; 4: 0.37; 5: 1.41; 6: 1.57; 7: 0.76; 8: 0.04

Give self-cleavage for each of the items listed below.
1. A22C A89C
2. G65A A116G

Key:
[1.57, 0.45]
